Molecular target: Tyrosine-protein kinase SYK (Homo sapiens)
Experiment: Inhibition of Syk (unknown origin) assessed as enzyme activity at 2 uM preincubated for 20 mins followed by 33P-gamma-ATP measured after 120 mins by HotSpot assay relative to control
Parameters: scale not given: the % may be the effect or the level left
Details: time 140.0 min
Mark T only when Activity stays strictly below 60%. Values equal to the cut-off are F.

> print(dat)
                               query.smiles  qualitative.label
1  c1ccc2[nH]c(-c3n[nH]cc3Nc3ccnc(NC4CCCC4)n3)nc2c1                  T
2  Nc1cccc(CNc2c[nH]nc2-c2nc3ccccc3[nH]2)c1                  T
3  CCN(CC)CCNc1nccc(Nc2c[nH]nc2-c2nc3ccccc3[nH]2)n1                  T

Would you kindly verify if Activity of `c1ccc2[nH]c(-c3n[nH]cc3NC3CCNCC3)nc2c1` is strictly less than 60%? F

* * *

Test: Metabolic stability in human liver microsomes assessed as half life at […] incubated for 60 mins in presence of NADPH by LC-MS/MS analysis
Assay type: ADME, Microsome
Mark rule met only when half-life stays strictly below 20 min. Values equal to the cut-off are rule not met.

> print(dat)
                               query.smiles  qualitative.label
1  CC(C)N1CCN(c2ccc3[nH]c(-c4n[nH]cc4Nc4ncnc5[nH]ccc45)nc3c2)CC1       rule not met
2  c1nc(Nc2c[nH]nc2-c2nc3cc(OCCN4CCOCC4)ccc3[nH]2)c2cc[nH]c2n1       rule not met
3  CN(C)CCN(C)c1ccc2[nH]c(-c3n[nH]cc3Nc3ncnc4[nH]ccc34)nc2c1       rule not met

Would you kindly verify if half-life of `CN(C)c1cccc2[nH]c(-c3n[nH]cc3Nc3ncnc4[nH]ccc34)nc12` is strictly less than 20 min? rule not met

Would you kindly verify if half-life of `CCN(CC)c1ccc2[nH]c(-c3n[nH]cc3Nc3ncnc4[nH]ccc34)nc2c1` is strictly less than 20 min? rule met

Would you kindly verify if half-life of `C[C@@H]1CN(c2ccc3[nH]c(-c4n[nH]cc4Nc4ncnc5[nH]ccc45)nc3c2)C[C@H](C)O1` is strictly less than 20 min? rule not met

Would you kindly verify if half-life of `Cc1cccc2[nH]c(-c3n[nH]cc3Nc3ncnc4[nH]ccc34)nc12` is strictly less than 20 min? rule not met

Would you kindly verify if half-life of `COc1ccc2[nH]c(-c3n[nH]cc3Nc3ncnc4[nH]ccc34)nc2c1` is strictly less than 20 min? rule met

* * *

Test: Metabolic stability in human liver microsomes assessed as half life at […] incubated for 60 mins in presence of NADPH by LC-MS/MS analysis
Format: ADME, Microsome
Kindly supply the reported half-life values for the records listed here.
Answers are plain numbers, in h.

Answered examples (3):
> print(dat)
                               query.smiles  test.value
1  CN1CCN(c2ccc3[nH]c(-c4n[nH]cc4Nc4ncnc5[nH]ccc45)nc3c2)CC1        1.75
2  CN(C)c1ccc2[nH]c(-c3n[nH]cc3Nc3ncnc4[nH]ccc34)nc2c1       0.748
3  c1cc(N2CCCC2)c2nc(-c3n[nH]cc3Nc3ncnc4[nH]ccc34)[nH]c2c1        0.74

Please examine the following record next.
Entry `COc1cccc2[nH]c(-c3n[nH]cc3Nc3ncnc4[nH]ccc34)nc12` needs its half-life filled in; supply it. 1.62
